Cited source for all entries: ChEMBL document CHEMBL3616434

# Tested on: Mycobacterium tuberculosis
# EXPERIMENTAL DETAILS: Antitubercular activity against Mycobacterium tuberculosis H37Rv ATCC 25618 under aerobic condition after 5 days
# Type: functional
# EXPERIMENTAL PARAMETERS: H37Rv ATCC 25618, 120 h
Quick list: MIC per entry.

{"MOL": "CCc1nc2ccccc2n1CCCCOc1ccccc1C(C)C", "TESTED ON": "Mycobacterium tuberculosis", "UNITS SYMBOL": "µM", "MIC": 20}
{"MOL": "CCc1nc2ccc(C)cc2n1CCCCNc1ccc(C)cc1", "TESTED ON": "Mycobacterium tuberculosis", "UNITS SYMBOL": "µM", "MIC": 0.15}
{"MOL": "CC(=O)Nc1nc2ccc(C)cc2n1CCCCOc1ccc(C)c(Cl)c1", "TESTED ON": "Mycobacterium tuberculosis", "UNITS SYMBOL": "µM", "MIC": 11}
{"MOL": "CCc1nc2ccccc2n1CCCCOc1ccc(Cl)cc1F", "TESTED ON": "Mycobacterium tuberculosis", "UNITS SYMBOL": "µM", "MIC": 1.5}
{"MOL": "CCc1nc2ccccc2n1CCCCOCc1ccccc1", "TESTED ON": "Mycobacterium tuberculosis", "UNITS SYMBOL": "µM", "MIC": 3.6}
{"MOL": "CCc1nc2ccc(C)cc2n1CCCCNc1ccc(C)c(Br)c1", "TESTED ON": "Mycobacterium tuberculosis", "UNITS SYMBOL": "µM", "MIC": 0.11}
